# Tested on: SN12C
# ASSAY TEXT: NCI tumour cell line growth inhibition, 48 h
Activity calls are given as the source filed them. Rule as the data show it: active = GI50 up to about 1.1 µM and inactive = higher.
Possible outcomes: active, inactive

MOLECULE: CCOC1OC(CO)C(O)CC1n1ccc(=O)[nH]c1=O (stereo not given)
CLASS: inactive
//
MOLECULE: COC1=NN2C(OC)(c3ccccc3)c3c(-c4ccccc4)sc(-c4ccccc4)c3C2(c2ccccc2)S1 (stereo not given)
CLASS: inactive
//
MOLECULE: C[Si](C)(C)/C(I)=C/CO
CLASS: inactive
//
MOLECULE: CSc1nc2c(c(N(C)C)n1)C=Nn1c(nc3ccccc31)S2
CLASS: inactive
//
MOLECULE: O=[N+]([O-])c1cccc2nc3ccccc3c(NCCCCNc3c4ccccc4nc4cccc([N+](=O)[O-])c34)c12
CLASS: active
//
MOLECULE: CCC(C)C(=O)OC1CC2(C)C(c3ccoc3)OC(=O)CC23OC2(C)OC34C(OC(=O)C(C)C)C3(O)C(OC(=O)C5(C)OC5C)C5(C)CC3(O)C(C)(C5CC(=O)OC)C14O2 (stereo not given)
CLASS: inactive
//
MOLECULE: CC(C)(C)OC(=O)[C@@H]1CCC(=S)N1Cc1ccccc1
CLASS: inactive
//
MOLECULE: COc1cccc(SSc2cccc(OC)c2C(=O)O)c1C(=O)O
CLASS: inactive
//
MOLECULE: FC(F)(F)C1(C(F)(F)F)O[Si]2(OC(C(F)(F)F)(C(F)(F)F)c3ccccc32)c2ccccc21
CLASS: inactive
//
MOLECULE: CC(NNC(=O)c1ccncc1)c1ccc(Cl)cc1Cl (stereo not given)
CLASS: inactive
